# target.system: cannabinoid CB1 receptor (Rattus norvegicus, UniProt P20272)
# Sequence (P20272 whole entry): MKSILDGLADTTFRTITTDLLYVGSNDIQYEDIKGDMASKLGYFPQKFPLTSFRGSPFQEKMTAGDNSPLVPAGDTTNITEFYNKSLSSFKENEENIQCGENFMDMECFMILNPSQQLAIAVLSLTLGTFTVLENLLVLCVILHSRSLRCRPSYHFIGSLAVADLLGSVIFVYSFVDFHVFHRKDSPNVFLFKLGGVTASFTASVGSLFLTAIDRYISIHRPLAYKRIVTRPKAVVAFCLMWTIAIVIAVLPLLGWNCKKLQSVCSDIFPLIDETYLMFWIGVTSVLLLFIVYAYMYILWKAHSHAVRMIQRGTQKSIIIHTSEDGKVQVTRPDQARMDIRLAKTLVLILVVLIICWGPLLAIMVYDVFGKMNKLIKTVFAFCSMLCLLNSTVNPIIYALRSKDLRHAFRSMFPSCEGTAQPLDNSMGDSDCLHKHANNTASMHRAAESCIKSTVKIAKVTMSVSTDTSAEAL
# assay.overview: [3H]CP55,940 binding, cannabinoid CB1 receptor, rat cerebellar membranes
# run.conditions: read-out: Ki (nM) CB1, 1 nM [3H]CP55,940, mean ± S.E.M.
value.kind: Ki (nM)

* CCS(=O)(=O)NCCCCC(C)(C)c1cc(O)c2c(c1)OC(C)(C)C1CC=C(C)CC21 (stereo not shown) | 1.7
* CC1=CC[C@@H]2[C@@H](C1)c1c(O)cc(CC#CCCCNS(C)(=O)=O)cc1OC2(C)C | 2.5
* CCCCS(=O)(=O)NCCCC#CCc1cc(O)c2c(c1)OC(C)(C)C1CC=C(C)CC21 (stereo not shown) | 70
* CCS(=O)(=O)NCCCC#CCc1cc(O)c2c(c1)OC(C)(C)[C@@H]1CC=C(C)C[C@@H]21 | 30
